Experiment: in vitro
Assay type: cell-based
Conditions: FH cells; read-out: CC50 (50% cytotoxic concentration)
Measured Quantity: CC50

Which CC50 reading was recorded for the compound O=C(O[C@@H]1[C@H](OC(=O)c2ccccc2)[C@H](n2cnc3c(N(C(=O)c4ccccc4)C(=O)c4ccccc4)ncnc32)O[C@@H]1CO)c1ccccc1 (stereo in doubt) ?
> 100 µM

###

Experiment: in vitro
Format: cell-based
Details: human; HeLa-CD4 cells; read-out: CC50 (50% cytotoxic concentration)
Method: A cell viability test measuring the absorbance at 560 and 690 nm using the yellow tetrazolium […] [3-(4,5-dimethyl-2-thiazolyl)-2,5-diphenyltetrazolium bromide] reagent was carried out with the tetrabenzoyladenosine in the HeLa-CD4, Vero, FH, MT2 and SupT1 cell lines. Using various cell types (HeLa-CD4, Vero, FH, MT2 and SupT1), the CC50 (50% cytotoxic concentration) of compound A was measured at more than 100 μM in all cases.
Measured Quantity: CC50

Which CC50 reading was recorded for the molecule O=C(O[C@@H]1[C@H](OC(=O)c2ccccc2)[C@H](n2cnc3c(N(C(=O)c4ccccc4)C(=O)c4ccccc4)ncnc32)O[C@@H]1CO)c1ccccc1 (stereo in doubt) ?
> 100 µM

###

Assay: in vitro
Type: cell-based
Conditions: human; SupT1 cells; read-out: CC50 (50% cytotoxic concentration)
Measured Quantity: CC50

Which CC50 reading was recorded for the molecule O=C(O[C@@H]1[C@H](OC(=O)c2ccccc2)[C@H](n2cnc3c(N(C(=O)c4ccccc4)C(=O)c4ccccc4)ncnc32)O[C@@H]1CO)c1ccccc1 (stereo in doubt) ?
> 100 µM
